- Tested on: ATP-dependent translocase ABCB1 (Homo sapiens, UniProt P08183)
- Sequence (P08183 whole entry): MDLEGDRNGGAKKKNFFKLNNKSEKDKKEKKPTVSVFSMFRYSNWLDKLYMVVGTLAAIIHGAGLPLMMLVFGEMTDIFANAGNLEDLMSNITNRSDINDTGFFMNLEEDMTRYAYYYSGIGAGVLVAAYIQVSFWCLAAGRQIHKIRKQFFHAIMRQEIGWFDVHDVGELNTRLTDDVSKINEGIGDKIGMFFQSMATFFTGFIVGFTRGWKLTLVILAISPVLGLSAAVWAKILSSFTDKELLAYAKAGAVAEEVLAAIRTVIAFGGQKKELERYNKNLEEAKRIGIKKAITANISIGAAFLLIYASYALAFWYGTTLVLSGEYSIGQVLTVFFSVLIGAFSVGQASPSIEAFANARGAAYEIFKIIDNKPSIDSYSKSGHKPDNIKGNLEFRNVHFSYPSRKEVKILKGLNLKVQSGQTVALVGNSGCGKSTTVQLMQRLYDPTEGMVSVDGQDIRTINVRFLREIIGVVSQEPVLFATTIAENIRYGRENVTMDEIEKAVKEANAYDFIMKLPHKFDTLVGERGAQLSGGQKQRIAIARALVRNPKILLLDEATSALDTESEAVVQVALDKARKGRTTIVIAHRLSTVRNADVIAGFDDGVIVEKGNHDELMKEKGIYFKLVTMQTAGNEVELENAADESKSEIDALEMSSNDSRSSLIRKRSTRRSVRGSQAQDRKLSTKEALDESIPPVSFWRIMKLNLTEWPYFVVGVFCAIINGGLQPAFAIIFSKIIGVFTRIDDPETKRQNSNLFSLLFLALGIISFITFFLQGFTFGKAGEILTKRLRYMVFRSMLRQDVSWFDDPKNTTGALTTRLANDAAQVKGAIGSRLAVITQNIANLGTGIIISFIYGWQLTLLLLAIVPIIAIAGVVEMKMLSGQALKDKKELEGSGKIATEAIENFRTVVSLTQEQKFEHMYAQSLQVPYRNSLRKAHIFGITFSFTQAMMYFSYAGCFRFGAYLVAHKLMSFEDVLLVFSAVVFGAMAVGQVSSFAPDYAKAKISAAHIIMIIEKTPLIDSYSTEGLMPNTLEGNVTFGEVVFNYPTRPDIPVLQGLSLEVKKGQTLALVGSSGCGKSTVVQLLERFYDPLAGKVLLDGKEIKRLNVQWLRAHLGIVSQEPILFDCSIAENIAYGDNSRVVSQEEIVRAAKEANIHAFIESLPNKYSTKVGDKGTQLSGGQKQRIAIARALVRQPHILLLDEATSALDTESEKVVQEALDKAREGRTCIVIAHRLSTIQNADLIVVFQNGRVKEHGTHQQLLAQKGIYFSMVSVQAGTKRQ
- Assay explanation: Inhibition of P-gp in human CAKI-2 cells assessed as increase in green fluorescence intensity at 0.1 to 10 uM incubated for 15 mins followed by incubation with EFFLUX-ID Green Detection Reagent and Hoeschst-33342 dye and measured after 30 mins by fluorescence analysis
- Format: cell-based
- Test conditions: caki-2, 0.25 h, dose 0.1-10 µM

>  <Mol>
O=C(Nc1ccc(Cl)c(Cl)c1)c1ccccc1OCc1nc2cc3cccnc3cc2nc1COc1ccccc1C(=O)Nc1ccc(Cl)c(Cl)c1

>  <inhibition (INH)>
Active

$$$$
>  <Mol>
N#Cc1ccc(OCc2nc3cc4cccnc4cc3nc2COc2ccc(C#N)cc2)cc1

>  <inhibition (INH)>
Active

$$$$
>  <Mol>
COC(=O)c1ccccc1SCc1nc2cc3cccnc3cc2nc1CSc1ccccc1C(=O)OC

>  <inhibition (INH)>
Active

$$$$
>  <Mol>
O=C(Nc1ccccc1)c1ccccc1OCc1nc2cc3cccnc3cc2nc1COc1ccccc1C(=O)Nc1ccccc1

>  <inhibition (INH)>
Active

$$$$
>  <Mol>
COC(=O)c1ccc(OCc2nc3cc4cccnc4cc3nc2COc2ccc(C(=O)OC)cc2OC)c(OC)c1

>  <inhibition (INH)>
Active

$$$$
>  <Mol>
COc1cc(NC(=O)c2cc(Cl)ccc2OCc2nc3cc4cccnc4cc3nc2COc2ccc(Cl)cc2C(=O)Nc2cc(OC)cc(OC)c2)cc(OC)c1

>  <inhibition (INH)>
Active

$$$$
>  <Mol>
COc1ccc(NC(=O)c2ccccc2OCc2nc3cc4cccnc4cc3nc2COc2ccccc2C(=O)Nc2ccc(OC)cc2)cc1

>  <inhibition (INH)>
Active

$$$$
>  <Mol>
COc1ccc(NC(=O)c2cc(Cl)ccc2OCc2nc3cc4cccnc4cc3nc2COc2ccc(Cl)cc2C(=O)Nc2ccc(OC)cc2)cc1

>  <inhibition (INH)>
Active

$$$$
>  <Mol>
COc1cc(NC(=O)c2cc(Cl)ccc2OCc2nc3cc4cccnc4cc3nc2COc2ccc(Cl)cc2C(=O)Nc2cc(OC)c(OC)c(OC)c2)cc(OC)c1OC

>  <inhibition (INH)>
Active

$$$$

* * *

- Assay explanation: Cytotoxicity against human A498 cells assessed as inhibition of cell growth at 4 uM incubated for 72 hrs by SiR-DNA/CellTox Green Dye based fluorescence analysis relative to control
- Type: toxicity

>  <Mol>
O=C(Nc1ccccc1)c1ccccc1OCc1nc2cc3cccnc3cc2nc1COc1ccccc1C(=O)Nc1ccccc1

>  <inhibition at 72 h, 4 µM [%]>
20

$$$$

* * *

- Assay explanation: Cytotoxicity against human HGC-27 cells assessed as inhibition of cell growth at 4 uM incubated for 72 hrs by SiR-DNA/CellTox Green Dye based fluorescence analysis relative to control
- Assay type: toxicity

>  <Mol>
O=C(Nc1ccccc1)c1ccccc1OCc1nc2cc3cccnc3cc2nc1COc1ccccc1C(=O)Nc1ccccc1

>  <inhibition at 72 h, 4 µM (%)>
40

$$$$

Taken from ChEMBL document CHEMBL5608187.
